assay.text: Toxicity liver stage against HepG2, at 10uM
Type: cell-based
Parameters: test concentration 10 uM, cell line HepG2-A16-CD81EGFP
details: human, HepG2-A16-CD81EGFP cells; read-out: INHIBITION
measurement.label: cytotoxicity at 10 µM (%)

1) CCN1CCN(C(C)CNC(=O)Nc2nnc(C)s2)CC1 (centres undefined); -12.2
2) O=C(NCC1CCOC1)N1CCN(Cc2ccc3c(c2)CCO3)CC1 (centres undefined); -4.2
3) CCN1CCNC(=O)C12CCN(S(=O)(=O)c1ccc(F)cc1)CC2; 1.17
4) CC(NC(=O)N(C)CCCOc1ccc(F)cc1)c1nncn1C (centres undefined); 2.48
5) CN(C)CCO[C@H]1C[C@@H](O)C12CCN(c1nccc3ccccc13)CC2; 2.2
6) C[S+]([O-])CCCNCc1cc(F)ccc1Br (centres undefined); 0.732
7) COc1cc(C)ccc1OCC(=O)NS(=O)(=O)c1cc(F)ccc1F; 2.15
8) CCC[C@@H]1CN(c2cncc(C(=O)N3CCOCC3)n2)C[C@H]1N(C)C; 4.63
9) COc1ccc(OC)c(NC(=O)c2cc3c([nH]c2=O)CCCC3=O)c1; -0.607
10) CCCn1ncc(C(=O)N(Cc2cccnc2)C[C@@H]2CCC(=O)N2)c1C; 7.69
11) COc1ccccc1OCCNc1snc(Cl)c1C#N; 20.5
12) COC(=O)N(C)CCCC(=O)Nc1[nH]nc(-c2ccncc2)c1C; -0.946
13) Cc1n[nH]c(C2CN(Cc3nnc(C4CC4)n3C)CCO2)n1 (centres undefined); -16
14) CCCOc1ccccc1CCCNc1ncnc2oc(C)nc12; 22.4
15) Cc1ccc2c(c1)CN(CC(=O)NCCc1ccc(F)cc1)CC(C)O2 (centres undefined); 1.54
16) COCCN1CCC(CNCc2c[nH]nc2C(C)(C)C)CC1; -17
17) NC(=O)c1nc2c(s1)CCN(Cc1ccccc1)CC2; 9.61
18) CC(=O)N1CCC(NC(=O)CN2CCCc3c(C)ccc(F)c32)CC1; -5.82
19) CCO[C@@H]1CCN(C(=O)c2ccc[nH]2)[C@@H]1Cc1cnn(C)c1; 1.44
20) Cc1nc(C)c(C(=O)N2CCc3c(Cl)cccc32)o1; -1.55
21) O=C(O)c1cccc(CN2CCCC(Cc3ccn[nH]3)C2)c1 (centres undefined); 5.39
22) Cn1cnc(S(=O)(=O)NCCN2CCCCCC2)c1Cl; -17.2
23) O=C(NCCn1ccc(-c2ccncc2)n1)C1CC1; -2.08
24) CCOCCN1CCN(c2ncccc2C#N)CC1CC (centres undefined); 5.94

====

cytotoxicity at 10 µM values for the compounds below.
assay.text: Toxicity liver stage against HepG2, at 10uM
Format: cell-based
Set-up: test concentration 10 uM, cell line HepG2-A16-CD81EGFP
details: human, HepG2-A16-CD81EGFP cells; read-out: INHIBITION
measurement.label: cytotoxicity at 10 µM (%)

1) O=C(CNc1cc(-n2cnnn2)ccc1F)Nc1ccccc1Cl; 11.7
2) CN(C)C(=O)N1CC[C@H]2[C@H]1CCN2c1nncs1; -1.19
3) CCC(NC(=O)C1CCN(C(=O)C2CC2)CC1)c1cn2cccnc2n1 (centres undefined); 0.0482
4) O=C(NCc1cnn(-c2ccc(F)cc2F)c1)C1CCCO1 (centres undefined); 8.69
5) COCC(=O)N1CC[C@@H](N2CCN(C)CC2)[C@@H]1Cc1ccccc1; -66.1
6) O=C(O)c1cc(-c2cccs2)nc2c(Br)cnn12; -9.24
7) CC(C)(C)C(=O)NCc1nccn1CCc1ccccc1; 3.75
8) O=C(NC1CC1)C1[C@H]2CN(Cc3ccc(-c4cc[nH]n4)s3)C[C@@H]12 (some centres undefined); 6.27
9) CC(C)CN1CCCC1c1ccc(C(=O)Nc2cc[nH]n2)s1 (centres undefined); 10.3
10) Cc1ccc(CN2CCn3cc(CN4CCN(C)CC4)nc3C2)cc1; -125
11) COCCN1CCCC2(CCN(c3ccsc3)C2=O)C1 (centres undefined); -79.6
12) Cc1ccc(C(O)CNCCn2cccn2)cc1C (centres undefined); -6.11
13) Cc1ccc(CCCC(=O)N(C)CCN2CCOCC2)cc1; -2.75
14) CN(CC(=O)NC1CC1)S(=O)(=O)c1ccc(F)cc1Cl; -8.06
15) Cc1cc(C(=O)N2CCC(C)CC2)ccc1NS(C)(=O)=O; 3.09
16) O=C(COc1ccccc1NCc1ccc(F)cc1)N1CCOCC1; -2.82
17) COCC(=O)N1Cc2nc3c(C)c(-c4cccs4)nn3c(O)c2C1; -4.81
18) C=C(C)CN(CC)S(=O)(=O)c1c(F)cc(NC(C)=O)cc1F; -47.1
19) CCn1c(=O)n(Cc2nc(C3CC3)no2)c2ccccc21; -43.2
20) Cn1ccnc1CN1CCC(c2nnc(Cn3cccn3)n2C)CC1; 17.4
21) Cc1ccc(NC2CCN(C(=O)c3cc(C(N)=O)cs3)CC2)nn1; 2.94
22) CCCc1nnc2sc(C3CCN(CC)CC3)nn12; 4.6
23) COC[C@@H]1CCC[C@]12CN(S(=O)(=O)c1cn(C)cn1)CCO2; 4.06
24) Cc1ccccc1C(C(=O)NCCS(C)(=O)=O)N(C)C (centres undefined); 11.2
